test.method.notes: AUClast in Sprague-Dawley rat at 1 mg/kg, iv measured upto 24 hrs by LC-MS/MS analysis
Format: ADME, organism-based
Set-up: route intravenous, dose 1 mg/kg, time <=24
stated.conditions: in vivo
property.name: AUC(0-t) at 24 h (ng·h/mL)
Answers are plain numbers, in ng·h/mL.

-- ask Can you look up the measured AUC(0-t) at 24 h of "COc1cccc(C(=O)OCCCCNC(=N)N)c1OC" for me?
-- reply 882

* * *

test.method.notes: Half life in po dosed Sprague-Dawley rat measured upto 24 hrs by LC-MS/MS analysis
Type: ADME, organism-based
stated.conditions: in vivo
property.name: half-life

-- ask Can you look up the measured half-life of "COc1cc(C(=O)OCCCCNC(=N)N)cc(OC)c1O" for me?
-- reply > 2 h
